Reported GBA EC50 Ratio ([35S]GTPγS binding) is given for each of the following binders.
Target: T1, human Y2 receptor (human, UniProt P49146 1-381)
T1 sequence (looked up): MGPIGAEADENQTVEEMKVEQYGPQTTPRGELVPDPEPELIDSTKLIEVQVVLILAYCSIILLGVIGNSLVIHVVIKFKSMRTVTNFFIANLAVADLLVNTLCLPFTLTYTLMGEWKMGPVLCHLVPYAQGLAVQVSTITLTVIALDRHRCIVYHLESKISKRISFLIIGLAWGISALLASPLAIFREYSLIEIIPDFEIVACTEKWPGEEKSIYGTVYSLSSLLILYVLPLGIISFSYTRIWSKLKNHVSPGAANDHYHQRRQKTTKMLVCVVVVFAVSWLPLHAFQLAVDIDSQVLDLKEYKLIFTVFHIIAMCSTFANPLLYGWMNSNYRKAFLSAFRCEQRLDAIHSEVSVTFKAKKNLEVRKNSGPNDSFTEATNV
Test: cell-based or functional assay
Non-standard residues stand in square brackets, D forms with d. *: point of attachment. X11 = ((1S)-1-carboxy-3-methylbutyl)carbamoyl, CC(C)C[C@H](NC(=O)*)C(=O)O; X10 = Tetrahydro‑2H‑pyran‑4‑yl‑carbamoyl, O=C(NC1CCOCC1)*; Phe(2-Me) = Cc1ccccc1C[C@H](N)C(=O)O; tBuAla = CC(C)(C)C[C@H](N)C(=O)O; Cha = N[C@@H](CC1CCCCC1)C(=O)O; Aib = CC(C)(N)C(=O)O

Binder	GBA EC50 Ratio ([35S]GTPγS binding)
Ac-S[dP]RW[Cha][Aib]NK[Aib]TRQR[Cha]-NH2 (SMILES CC(=O)N[C@@H](CO)C(=O)N1CCC[C@@H]1C(=O)N[C@@H](CCCNC(=N)N)C(=O)N[C@@H](Cc1c[nH]c2ccccc12)C(=O)N[C@@H](CC1CCCCC1)C(=O)NC(C)(C)C(=O)N[C@@H](CC(N)=O)C(=O)N[C@@H](CCCCN)C(=O)NC(C)(C)C(=O)N[C@H](C(=O)N[C@@H](CCCNC(=N)N)C(=O)N[C@@H](CCC(N)=O)C(=O)N[C@@H](CCCNC(=N)N)C(=O)N[C@@H](CC1CCCCC1)C(N)=O)[C@@H](C)O, also called compound No. 347) [Ac-[D-Pro24, Trp26, Cha27,36, Aib28,31, Lys30]-PYY(23-36)]	1.3 EC50 compound/EC50 PYY(3-36)
X10-E[dP]RH[Cha][Cha]NK[Aib]TRQR[Cha]-NH2 (SMILES C[C@@H](O)[C@H](NC(=O)C(C)(C)NC(=O)[C@H](CCCCN)NC(=O)[C@H](CC(N)=O)NC(=O)[C@H](CC1CCCCC1)NC(=O)[C@H](CC1CCCCC1)NC(=O)[C@H](Cc1c[nH]cn1)NC(=O)[C@H](CCCNC(=N)N)NC(=O)[C@H]1CCCN1C(=O)[C@H](CCC(=O)O)NC(=O)NC1CCOCC1)C(=O)N[C@@H](CCCNC(=N)N)C(=O)N[C@@H](CCC(N)=O)C(=O)N[C@@H](CCCNC(=N)N)C(=O)N[C@@H](CC1CCCCC1)C(N)=O, also called compound No. 230) [Tetrahydro-2H-pyran-4-yl-carbamoyl-[Glu23, D-Pro24, Cha27,28,36, Lys30, Aib31]-PYY(23-36)]	2.5 EC50 compound/EC50 PYY(3-36)
Ac-S[dP]RF[Cha][Aib]NK[Aib]TRQR[Cha]-NH2 (SMILES CC(=O)N[C@@H](CO)C(=O)N1CCC[C@@H]1C(=O)N[C@@H](CCCNC(=N)N)C(=O)N[C@@H](Cc1ccccc1)C(=O)N[C@@H](CC1CCCCC1)C(=O)NC(C)(C)C(=O)N[C@@H](CC(N)=O)C(=O)N[C@@H](CCCCN)C(=O)NC(C)(C)C(=O)N[C@H](C(=O)N[C@@H](CCCNC(=N)N)C(=O)N[C@@H](CCC(N)=O)C(=O)N[C@@H](CCCNC(=N)N)C(=O)N[C@@H](CC1CCCCC1)C(N)=O)[C@@H](C)O, also called compound No. 345) [Ac-[D-Pro24, Phe26, Cha27,36, Aib28,31, Lys30]-PYY(23-36)]	1.4 EC50 compound/EC50 PYY(3-36)
X11-E[dP]RH[Cha][Cha]NK[Aib]TRQR[Cha]-NH2 (SMILES CC(C)C[C@H](NC(=O)N[C@@H](CCC(=O)O)C(=O)N1CCC[C@@H]1C(=O)N[C@@H](CCCNC(=N)N)C(=O)N[C@@H](Cc1c[nH]cn1)C(=O)N[C@@H](CC1CCCCC1)C(=O)N[C@@H](CC1CCCCC1)C(=O)N[C@@H](CC(N)=O)C(=O)N[C@@H](CCCCN)C(=O)NC(C)(C)C(=O)N[C@H](C(=O)N[C@@H](CCCNC(=N)N)C(=O)N[C@@H](CCC(N)=O)C(=O)N[C@@H](CCCNC(=N)N)C(=O)N[C@@H](CC1CCCCC1)C(N)=O)[C@@H](C)O)C(=O)O, also called compound No. 254) [[(1S)-1-carboxy-3-methylbutyl]carbamoyl-[Glu23, D-Pro24, Cha27,28,36, Lys30, Aib31]-PYY(23-36)]	1.5 EC50 compound/EC50 PYY(3-36)

## Input GET /values?readout=GBA EC50 Ratio ([35S]GTPγS binding)&item= Ac-S[dP]RH[Cha][tBuAla]NK[Aib]TRQR[Phe(2-Me)]-NH2 (SMILES CC(=O)N[C@@H](CO)C(=O)N1CCC[C@@H]1C(=O)N[C@@H](CCCNC(=N)N)C(=O)N[C@@H](Cc1c[nH]cn1)C(=O)N[C@@H](CC1CCCCC1)C(=O)N[C@@H](CC(C)(C)C)C(=O)N[C@@H](CC(N)=O)C(=O)N[C@@H](CCCCN)C(=O)NC(C)(C)C(=O)N[C@H](C(=O)N[C@@H](CCCNC(=N)N)C(=O)N[C@@H](CCC(N)=O)C(=O)N[C@@H](CCCNC(=N)N)C(=O)N[C@@H](Cc1ccccc1C)C(N)=O)[C@@H](C)O, also called compound No. 255) [Ac-[D-Pro24, Cha27, Leu(Me)28, Lys30, Aib31, Phe(2Me)36]-PYY(23-36)]
## Output 0.86 EC50 compound/EC50 PYY(3-36)
